These entries and their values trace back to the supplement of paper PMC10126150.

Please respond with reported switch fluorescence ratio for every item in the list.
Test system: ATP;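 further: ATP exposure 15 min at 22 °C before imaging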
Assay: switch fluorescence ratio, 500 uM ATP over buffer (Cy3 cluster intensity, sum of 5 cycles each) (fold (ratio)); higher = stronger signal-on switching upon ATP binding; sequences stand for … in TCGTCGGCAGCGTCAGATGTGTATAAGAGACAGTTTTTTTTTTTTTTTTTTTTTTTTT…TC
Details: aptamer strand: ATP DNA aptamer (quencher-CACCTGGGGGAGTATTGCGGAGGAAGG + anchor), 100 nM annealed; ATP concentration: 500 uM
One number for each entry.

# example entries with known answers
QUERY: Look up switch fluorescence ratio: `ATATTAGTAT`
RESULT: 1.01

QUERY: Item: `GTGTACCGGA`
RESULT: 0.981

QUERY: Item: `TTGGAGGGCT`
RESULT: 0.978

For every record below, what is its switch fluorescence ratio?
1. TCAGGGTGTG
2. TATTAGAATA
3. GGGAGCCTAT
4. AATATGGGGT

RESULT:
1.02
0.981
1
1.01

For every record below, what is its switch fluorescence ratio?
1. TTCCTTGTAG
2. CGTGATGAGG

RESULT:
1: 1.02; 2: 0.989

For every record below, what is its switch fluorescence ratio?
1. GGGGCGGTCC
2. GTCGGAGCGA
3. CGTCCTGGGC
4. GAGAGCAAGT
5. TTAGTCCGTG
6. AATTGTGCCG

RESULT:
1: 1.04; 2: 1.83; 3: 1.04; 4: 1.14; 5: 1.01; 6: 1.1

For every record below, what is its switch fluorescence ratio?
1. TGCTAGAAGT
2. GGGGCGTCGT

RESULT:
0.979
1.02
